Provenance of the data: ChEMBL document CHEMBL5223082

test system: Staphylococcus aureus; test: Potency index, ratio of Vancomycin MIC to test compound MIC for antibacterial activity against Vancomycin-resistant Staphylococcus aureus 12; assay type: functional
Please respond with reported Ratio for every item in the list.
Output spec: single numeric token, no unit.

Exercise: Fill in the blank: the reported Ratio of "CCCCCCCCCCCCNC(=O)C[N+](C)(C)CCCNC(=O)c1ccc(CN[C@@]2(C)C[C@H](O[C@H]3[C@H](Oc4c5cc6cc4Oc4ccc(cc4Cl)[C@@H](O)[C@@H](NC(=O)[C@@H](CC(C)C)NC)C(=O)N[C@@H](CC(N)=O)C(=O)N[C@H]6C(=O)N[C@H]4C(=O)N[C@H](C(=O)N[C@H](C(=O)O)c6cc(O)cc(O)c6-c6cc4ccc6O)[C@H](O)c4ccc(c(Cl)c4)O5)O[C@H](CO)[C@@H](O)[C@@H]3O)O[C@@H](C)[C@H]2O)cc1" is ____.
Key: 780

Exercise: Using the record for "CCCCCCNC(=O)C[N+](C)(C)CCCNC(=O)c1ccc(CN[C@@]2(C)C[C@H](O[C@H]3[C@H](Oc4c5cc6cc4Oc4ccc(cc4Cl)[C@@H](O)[C@@H](NC(=O)[C@@H](CC(C)C)NC)C(=O)N[C@@H](CC(N)=O)C(=O)N[C@H]6C(=O)N[C@H]4C(=O)N[C@H](C(=O)N[C@H](C(=O)O)c6cc(O)cc(O)c6-c6cc4ccc6O)[C@H](O)c4ccc(c(Cl)c4)O5)O[C@H](CO)[C@@H](O)[C@@H]3O)O[C@@H](C)[C@H]2O)cc1" , report its Ratio.
Key: 10
